For each of the molecules below, state its EC50.
Test system: SH-SY5Y
assayComment: Cytotoxicity against human SH-SY5Y cells after 48 hrs by neutral red assay
Format: functional, cell-based
conditionNotes: read-out: pEC50 (converted)
Provide the reading as a plain figure in µM.

Specify reported EC50 for the molecule shown: CCSc1ccc(CC(CC)N(C)O)cc1 (configuration not stated)
209

Name the recorded EC50 of the item C#CCNC(CC)Cc1ccc(SC)cc1 (configuration not stated) in your answer.
394

Name the recorded EC50 of the item CCSc1ccc(CC(CC)NO)cc1 (configuration not stated) in your answer.
1820

Give me measured EC50, please, for this molecule: CCC(Cc1ccc(SC)cc1)NO (configuration not stated)
31.6

Tell me its EC50 given CSc1ccc(CC(C)N)cc1 (configuration not stated) as the entry.
608
